- tested.on: canine TRPM8 (Canis lupus familiaris, UniProt Q1A7N1)
- Construct: expressed in transfected cells
- Sequence (Q1A7N1 1-1104): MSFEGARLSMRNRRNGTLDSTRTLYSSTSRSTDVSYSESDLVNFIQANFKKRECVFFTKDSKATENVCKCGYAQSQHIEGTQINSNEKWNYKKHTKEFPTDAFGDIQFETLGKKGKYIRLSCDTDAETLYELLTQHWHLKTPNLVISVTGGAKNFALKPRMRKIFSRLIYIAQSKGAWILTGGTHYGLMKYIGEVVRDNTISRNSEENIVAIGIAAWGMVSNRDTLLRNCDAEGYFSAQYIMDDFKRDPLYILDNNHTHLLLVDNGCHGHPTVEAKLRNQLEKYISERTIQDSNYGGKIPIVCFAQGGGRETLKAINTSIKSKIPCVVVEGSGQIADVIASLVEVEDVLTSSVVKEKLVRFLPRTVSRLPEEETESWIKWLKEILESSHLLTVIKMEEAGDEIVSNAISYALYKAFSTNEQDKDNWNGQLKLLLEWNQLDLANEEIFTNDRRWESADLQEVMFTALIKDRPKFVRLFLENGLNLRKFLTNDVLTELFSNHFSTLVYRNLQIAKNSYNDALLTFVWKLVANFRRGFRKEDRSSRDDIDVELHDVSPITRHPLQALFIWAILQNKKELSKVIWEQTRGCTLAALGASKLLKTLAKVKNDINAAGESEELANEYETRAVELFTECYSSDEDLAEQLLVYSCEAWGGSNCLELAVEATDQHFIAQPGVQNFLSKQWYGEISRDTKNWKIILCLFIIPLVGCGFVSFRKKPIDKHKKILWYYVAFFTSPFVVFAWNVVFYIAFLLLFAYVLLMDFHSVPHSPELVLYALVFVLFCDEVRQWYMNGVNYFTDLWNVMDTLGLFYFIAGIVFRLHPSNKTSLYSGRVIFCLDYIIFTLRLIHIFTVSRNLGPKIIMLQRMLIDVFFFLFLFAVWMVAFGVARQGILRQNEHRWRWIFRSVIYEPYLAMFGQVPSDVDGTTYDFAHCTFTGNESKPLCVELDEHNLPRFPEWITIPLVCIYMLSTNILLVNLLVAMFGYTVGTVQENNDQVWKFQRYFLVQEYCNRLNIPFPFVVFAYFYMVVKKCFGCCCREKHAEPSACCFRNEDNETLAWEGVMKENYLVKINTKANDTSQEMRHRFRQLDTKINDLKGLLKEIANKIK
- assay.method.text: In Vitro Canine TRPM8 Functional Assay (Ca2+ fluorescence, icilin activation)
- Format: cell-based
- condition.parameters: 0.2 μM compound; canine TRPM8 HEK293; icilin; 0.2 µM
# maps each entry to its % Inh @ 0.2 μM
readout.kind: % Inh @ 0.2 μM (%)

• O=C(C(Nc1ccccc1F)c1ccc(C(F)(F)F)cc1)N1CCCC1c1ccccc1F (single isomer, unassigned) = 103
• COC(=O)C1CCC(c2ccccc2)N1C(=O)C(Nc1c(F)cccc1F)c1ccc(Br)cc1 (centres unmarked) = 69
• O=C(O)c1ccc(-c2ccc(C(Nc3ccccc3F)C(=O)N3CCCC3c3ccccc3F)cc2)cc1 (mixture of isomers) = 91
• O=C(C(Nc1ccccc1F)c1ccc(-c2cncnc2)cc1)N1CCCC1c1ccccc1F (centres unmarked) = 95
• O=C(C(Nc1ccccc1F)c1ccc(-c2ccccn2)cc1)N1CCCC1c1ccccc1F (single isomer, unassigned) = 96
• O=C(C(Nc1ccccc1)c1ccccn1)N1CCCC1c1ccccc1F (centres unmarked) [Cpd 217] = 26
• Cc1nc2ccc(C(Nc3ccccc3F)C(=O)N3CCCC3c3ccccc3F)cc2s1 (single isomer, unassigned) = 100
• O=C(C(Nc1ccccc1F)c1ccc(-c2ccccc2)nc1)N1CCC[C@H]1c1ccccc1F (mixture of isomers) = 102
• COC(=O)C1CCC(c2ccccc2)N1C(=O)C(Nc1ccccc1)c1ccc(Cl)cc1 (centres unmarked) [Cpd 213] = 63
• COC(=O)C1CCC(c2ccccc2)N1C(=O)C(Nc1ccccc1)c1ccc(Cl)cc1 (centres unmarked) [Cpd 207] = 47
• O=C(C(Nc1ccccc1F)c1ccc(C(F)(F)F)cc1)N1CCCC1c1cncc(Br)c1 (single isomer, unassigned) = 97
• COC(=O)C1CCC(c2ccccc2)N1C(=O)C(Nc1ccccc1F)c1ccc(Br)cc1 (centres unmarked) [Cpd 195] = 32
• O=C(C(Nc1ccccc1F)c1ccc(-c2ccccn2)cc1)N1CCCC1c1ccccc1Cl (single isomer, unassigned) = 97
• COC(=O)C1CCC(c2ccccc2)N1C(=O)C(Nc1ccccc1)c1ccc(Cl)cc1 (single isomer, unassigned) [Cpd 212] = 99
